# Test system: SVG p12 normal glial cells
# measurement setup: read-out: EC50 48 h SVG p12; 48 h, SVG p12
result type: pEC50
pEC50 here: minus log base 10 of the concentration, concentration in moles per litre.

Reported pEC50, compound N.N.[Cl][Pt][Cl] [Cisplatin] : ____ 4.82

====

# Test system: U87 MG cells
# assay summary: cells
# Format: cell-based, human
# measurement setup: 24 h, U87 MG; read-out: EC50 24 h U87 MG
result type: EC50 (µM)
Give a bare numeral; the unit µM is implied.

Reported EC50, compound N.N.[Cl][Pt][Cl] [Cisplatin] : ____ 90

====

# Test system: SVG p12 normal glial cells
# measurement setup: read-out: EC50 24 h SVG p12; 24 h, SVG p12
result type: EC50 (µM)
Give a bare numeral; the unit µM is implied.

Reported EC50, compound N.N.[Cl][Pt][Cl] [Cisplatin] : ____ 35
